Data provenance: patent US20250320252A1

- System: T1, human GIP receptor (human, UniProt P48546 22-466)
- T1 sequence (looked up): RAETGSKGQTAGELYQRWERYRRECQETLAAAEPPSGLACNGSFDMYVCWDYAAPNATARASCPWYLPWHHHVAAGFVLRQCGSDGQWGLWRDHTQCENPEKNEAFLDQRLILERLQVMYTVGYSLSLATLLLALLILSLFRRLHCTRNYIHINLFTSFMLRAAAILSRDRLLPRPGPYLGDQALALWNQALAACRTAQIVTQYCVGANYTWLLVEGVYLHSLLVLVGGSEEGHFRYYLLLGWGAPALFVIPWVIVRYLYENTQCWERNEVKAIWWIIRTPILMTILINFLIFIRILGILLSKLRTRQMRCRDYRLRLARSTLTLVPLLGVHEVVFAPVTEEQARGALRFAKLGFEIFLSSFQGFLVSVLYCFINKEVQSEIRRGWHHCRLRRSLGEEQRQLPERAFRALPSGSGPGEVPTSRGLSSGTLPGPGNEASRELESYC
- Experiment Summary: cell-based or functional assay
Bridge positions count the residues as written; N and C are the ends. Square brackets hold non-standard residues; d marks the D form. Ends that are not written are not given here. C20L5A = not defined here; Aib = CC(C)(N)C(=O)O
Catalogue of binders with associated EC50 of receptor-mediated cAMP synthesis, GIPR (nM), average
Write it as a number; the unit nM goes unstated.

Prompt: Check the records and state EC50 of receptor-mediated cAMP synthesis, GIPR (nM), average for Y[Aib]EGTFTSDYSIYCDKQAA[Aib]CFVNWLLAGGPSSGAPPPS-NH2 (linker 14-21 via C20L5A; reading uncertain) [C(14-21)-C20L5A]
Completion: 0.05

Shifting focus to the binder that follows.
Prompt: Check the records and state EC50 of receptor-mediated cAMP synthesis, GIPR (nM), average for Y[Aib]EGTFTSDYSIYLDKCAA[Aib]EFVCWLLAGGPSSGAPPPS-NH2 (linker 17-24 via C20L5A; not fully specified; reading uncertain) [C(17-24)-C20L5A]
Completion: 0.03
